Molecular target: Vasopressin V1b receptor (Homo sapiens)
Sequence (P47901 whole entry): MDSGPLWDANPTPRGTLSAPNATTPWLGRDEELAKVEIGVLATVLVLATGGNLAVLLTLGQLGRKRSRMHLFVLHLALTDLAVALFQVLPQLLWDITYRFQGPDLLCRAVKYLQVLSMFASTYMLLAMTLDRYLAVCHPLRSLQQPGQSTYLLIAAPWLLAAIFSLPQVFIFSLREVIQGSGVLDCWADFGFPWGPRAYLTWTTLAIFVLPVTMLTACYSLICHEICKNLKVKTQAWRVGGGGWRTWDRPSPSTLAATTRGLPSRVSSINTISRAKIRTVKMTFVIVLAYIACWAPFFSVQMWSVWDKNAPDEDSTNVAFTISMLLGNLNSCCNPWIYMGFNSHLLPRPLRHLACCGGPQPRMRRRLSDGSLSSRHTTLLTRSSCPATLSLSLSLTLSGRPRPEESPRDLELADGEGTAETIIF
Assay: Agonist activity at recombinant human vasopressin V1b receptor expressed in Flp-In-293 cells by luciferase reporter gene assay
Type: functional, cell-based
Settings: read-out: EC50
Numbered stars: 1 amine (or outer) side, 2 acyl side, 3 side chain; on linkers, the order of the positions; unused ones are H or OH. Bridge positions count the residues as written; N and C are the ends. Square brackets hold non-standard residues; d marks the D form. Peptide text beside a SMILES is read from it. * marks the point of attachment. X4 = CONC(=O)CC[C@H](N[*:1])C(=O)[*:2]; Ala(cPent) = N[C@@H](CC1CCCC1)C(=O)O; 3Pal = N[C@@H](Cc1cccnc1)C(=O)O; Orn = NCCC[C@H](N)C(=O)O; Dab = NCC[C@H](N)C(=O)O; Ac4c = NC1(C(=O)O)CCC1; N(Me)OMe = CON(C)*; NHiBu = CC(C)CN*; X2 = CC(O)CN*; NHOH = ON*
property measured: EC50 (nM)

• CC[C@H](C)[C@@H]1NC(=O)[C@H](Cc2ccccc2)NC(=O)[C@@H](N)CSSC[C@@H](C(=O)N2CCC[C@H]2C(=O)N[C@@H](CCCN)C(=O)NCC(N)=O)NC(=O)[C@H](CC(N)=O)NC(=O)[C@H](CCC(=O)NOC)NC1=O (H-CFI[X4]NCP[Orn]G-NH2; disulfide 1-6) = 28
• CC[C@H](C)[C@@H]1NC(=O)[C@H](CC2CCCC2)NC(=O)[C@@H](N)CSSC[C@@H](C(=O)N2CCC[C@H]2C(=O)N[C@@H](CCN)C(=O)NCC(N)=O)NC(=O)[C@H](CC(N)=O)NC(=O)[C@H](CC(N)=O)NC1=O (H-C[Ala(cPent)]INNCP[Dab]G-NH2; disulfide 1-6) = 76
• CC[C@H](C)[C@@H]1NC(=O)C2(CCC2)NC(=O)[C@@H](N)CSSC[C@@H](C(=O)N2CCC[C@H]2C(=O)N[C@@H](CCCN)C(=O)NCC(N)=O)NC(=O)[C@H](CC(N)=O)NC(=O)[C@H](CC(N)=O)NC1=O (H-C[Ac4c]INNCP[Orn]G-NH2; disulfide 1-6) = 110
• CC[C@H](C)[C@@H]1NC(=O)[C@H](Cc2ccccc2)NC(=O)[C@@H](N)CSSC[C@@H](C(=O)N2CCC[C@H]2C(=O)N[C@@H](CCCN)C(=O)NCC(N)=O)NC(=O)[C@H](CC(N)=O)NC(=O)[C@H](CC(=O)NCC(C)O)NC1=O (stereo partly drawn) (H-CFID(X2)NCP[Orn]G-NH2; disulfide 1-6) = 28
• CC[C@H](C)[C@@H]1NC(=O)[C@H](CC2CCCC2)NC(=O)[C@@H](N)CSSC[C@@H](C(=O)N2CCC[C@H]2C(=O)N[C@@H](CCN)C(=O)NCC(N)=O)NC(=O)[C@H](CC(N)=O)NC(=O)[C@H](CCC(N)=O)NC1=O (H-C[Ala(cPent)]IQNCP[Dab]G-NH2; disulfide 1-6) = 20
• CC[C@H](C)[C@@H]1NC(=O)[C@H](Cc2cccnc2)NC(=O)[C@@H](N)CSSC[C@@H](C(=O)N2CCC[C@H]2C(=O)N[C@@H](CCN)C(=O)NCC(N)=O)NC(=O)[C@H](CC(N)=O)NC(=O)[C@H](CCC(N)=O)NC1=O (H-C[3Pal]IQNCP[Dab]G-NH2; disulfide 1-6) = 200
• CC[C@H](C)[C@@H]1NC(=O)C2(CCC2)NC(=O)[C@@H](N)CSSC[C@@H](C(=O)N2CCC[C@H]2C(=O)N[C@@H](CCN)C(=O)NCC(N)=O)NC(=O)[C@H](CC(N)=O)NC(=O)[C@H](CC(N)=O)NC1=O (H-C[Ac4c]INNCP[Dab]G-NH2; disulfide 1-6) = 120
• CCNC(=O)CC[C@@H]1NC(=O)[C@H]([C@@H](C)CC)NC(=O)[C@H](Cc2ccccc2)NC(=O)[C@@H](N)CSSC[C@@H](C(=O)N2CCC[C@H]2C(=O)N[C@@H](CCCN)C(=O)NCC(N)=O)NC(=O)[C@H](CC(N)=O)NC1=O (H-CFIE(NHEt)NCP[Orn]G-NH2; disulfide 1-6) = 97
• CC[C@H](C)[C@@H]1NC(=O)[C@H](Cc2ccccc2)NC(=O)[C@@H](N)CSSC[C@@H](C(=O)N2CCC[C@H]2C(=O)N[C@@H](CCCN)C(=O)NCC(N)=O)NC(=O)[C@H](CC(N)=O)NC(=O)[C@H](CC(=O)NC)NC1=O (H-CFID(NHMe)NCP[Orn]G-NH2; disulfide 1-6) = 39
• CC[C@H](C)[C@@H]1NC(=O)[C@H](Cc2ccccc2)NC(=O)[C@@H](N)CSSC[C@@H](C(=O)N2CCC[C@H]2C(=O)N[C@@H](CCN)C(=O)NCC(N)=O)NC(=O)[C@H](CC(N)=O)NC(=O)[C@H](CC(=O)NC)NC1=O (H-CFID(NHMe)NCP[Dab]G-NH2; disulfide 1-6) = 8.7
• CC[C@H](C)[C@@H]1NC(=O)[C@H](Cc2ccccc2)NC(=O)[C@@H](N)CSSC[C@@H](C(=O)N2CCC[C@H]2C(=O)N[C@@H](CCCN)C(=O)NCC(N)=O)NC(=O)[C@H](CC(N)=O)NC(=O)[C@H](CCC(=O)N(C)OC)NC1=O (H-CFIE(N(Me)OMe)NCP[Orn]G-NH2; disulfide 1-6) = 540
• CC[C@H](C)[C@@H]1NC(=O)[C@H](Cc2ccccc2)NC(=O)[C@@H](N)CSSC[C@@H](C(=O)N2CCC[C@H]2C(=O)N[C@@H](CCCN)C(=O)NCC(N)=O)NC(=O)[C@H](CC(N)=O)NC(=O)[C@H](CCC(=O)NCC(C)C)NC1=O (H-CFIE(NHiBu)NCP[Orn]G-NH2; disulfide 1-6) = 150
• CC[C@H](C)[C@@H]1NC(=O)[C@H](Cc2ccccc2)NC(=O)[C@@H](N)CSSC[C@@H](C(=O)N2CCC[C@H]2C(=O)N[C@@H](CCCN)C(=O)NCC(N)=O)NC(=O)[C@H](CC(N)=O)NC(=O)[C@H](CC(=O)NO)NC1=O (H-CFID(NHOH)NCP[Orn]G-NH2; disulfide 1-6) = 56

----------
Species: Homo sapiens
Assay: Selectivity ratio of EC50 for human vasopressin V1b receptor to EC50 for human vasopressin V1a receptor
Bridge positions count the residues as written; N and C are the ends. Square brackets hold non-standard residues; d marks the D form. Peptide text beside a SMILES is read from it. Ala(cPent) = N[C@@H](CC1CCCC1)C(=O)O; Orn(Pr) = CCCNCCC[C@H](N)C(=O)O; 3Thi = N[C@@H](Cc1ccsc1)C(=O)O; Orn = NCCC[C@H](N)C(=O)O; Dab = NCC[C@H](N)C(=O)O; Ac4c = NC1(C(=O)O)CCC1
property measured: Ratio EC50

- CC[C@H](C)[C@@H]1NC(=O)[C@H](CC2CCCC2)NC(=O)[C@@H](N)CSSC[C@@H](C(=O)N2CCC[C@H]2C(=O)N[C@@H](CCN)C(=O)NCC(N)=O)NC(=O)[C@H](CC(N)=O)NC(=O)[C@H](CCC(N)=O)NC1=O (H-C[Ala(cPent)]IQNCP[Dab]G-NH2; disulfide 1-6): 25
- CCCNCCC[C@H](NC(=O)[C@@H]1CCCN1C(=O)[C@@H]1CSSC[C@H](N)C(=O)N[C@@H](Cc2ccccc2)C(=O)N[C@@H]([C@@H](C)CC)C(=O)N[C@@H](CCC(N)=O)C(=O)N[C@@H](CC(N)=O)C(=O)N1)C(=O)NCC(N)=O (H-CFIQNCP[Orn(Pr)]G-NH2; disulfide 1-6): 180

1 = CC[C@H](C)[C@@H]1NC(=O)C2(CCC2)NC(=O)[C@@H](N)CSSC[C@@H](C(=O)N2CCC[C@H]2C(=O)N[C@@H](CCCN)C(=O)NCC(N)=O)NC(=O)[C@H](CC(N)=O)NC(=O)[C@H](CC(N)=O)NC1=O (H-C[Ac4c]INNCP[Orn]G-NH2; disulfide 1-6)
2 = CC[C@H](C)[C@@H]1NC(=O)[C@H](Cc2ccsc2)NC(=O)[C@@H](N)CSSC[C@@H](C(=O)N2CCC[C@H]2C(=O)N[C@@H](CCN)C(=O)NCC(N)=O)NC(=O)[C@H](CC(N)=O)NC(=O)[C@H](CC(N)=O)NC1=O (H-C[3Thi]INNCP[Dab]G-NH2; disulfide 1-6)
Please compare: 1 and 2 . Report which one has the smaller Ratio EC50 value. I would appreciate it if you answered with the label of your choice.
1
(1: 13, 2: 51)

----------
# Lookup of reported Ratio EC50 keyed by entry
Organism: Homo sapiens
Test: Selectivity ratio of EC50 for human vasopressin V1b receptor to EC50 for human vasopressin V1a receptor
Bridge positions count the residues as written; N and C are the ends. Square brackets hold non-standard residues; d marks the D form. Peptide text beside a SMILES is read from it. * marks the point of attachment. Ala(4-thiazolyl) = N[C@@H](Cc1cscn1)C(=O)O; Orn(Pr) = CCCNCCC[C@H](N)C(=O)O; Orn = NCCC[C@H](N)C(=O)O; Dab = NCC[C@H](N)C(=O)O; NHOH = ON*
Just the number, please.

- CCCNCCC[C@H](NC(=O)[C@@H]1CCCN1C(=O)[C@@H]1CSSC[C@H](N)C(=O)N[C@@H](Cc2ccccc2)C(=O)N[C@@H]([C@@H](C)CC)C(=O)N[C@@H](CC(N)=O)C(=O)N[C@@H](CC(N)=O)C(=O)N1)C(=O)NCC(N)=O (H-CFINNCP[Orn(Pr)]G-NH2; disulfide 1-6): 20
- CC[C@H](C)[C@@H]1NC(=O)[C@H](Cc2ccccc2)NC(=O)[C@@H](N)CSSC[C@@H](C(=O)N2CCC[C@H]2C(=O)N[C@@H](CCCN)C(=O)NCC(N)=O)NC(=O)[C@H](CC(N)=O)NC(=O)[C@H](CC(=O)NO)NC1=O (H-CFID(NHOH)NCP[Orn]G-NH2; disulfide 1-6): 13

Consider the record given below.
I would be grateful if you could share the reported Ratio EC50 for CC[C@H](C)[C@@H]1NC(=O)[C@H](Cc2cscn2)NC(=O)[C@@H](N)CSSC[C@@H](C(=O)N2CCC[C@H]2C(=O)N[C@@H](CCN)C(=O)NCC(N)=O)NC(=O)[C@H](CC(N)=O)NC(=O)[C@H](CCC(N)=O)NC1=O (H-C[Ala(4-thiazolyl)]IQNCP[Dab]G-NH2; disulfide 1-6) .
22
